experiment: chemical genetic growth profiling, strain panel (AID 1159580);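 further: tested at 20 µM; growth read once vehicle control cultures reached saturation at 30 °C; 1 = growth at the plate median or of vehicle wells; lower values mean less growth of the strain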; settings: S. cerevisiae deletion strains, growth OD, locus YER167W, strain BCK2, active compounds read low
In all, about 5,500 compounds went through this assay and about 2,000 (36%) were called active. About 18% were inconclusive and are not listed. The list shows a part of the results.
For each record, write down the corresponding normalized growth.
One number for each entry.

Solved cases (4 shown):
COMPOUND: N[C@@H](C(=O)N[C@@H]1C(=O)N2C(C(=O)O)=C(Cl)CS[C@H]12)c1ccccc1
normalized growth: 1.01
//
COMPOUND: CC(=O)NS(=O)(=O)c1ccc(N)cc1
normalized growth: 0.989
//
COMPOUND: O=c1c(O)c(-c2ccccc2)oc2ccc3occc3c12
normalized growth: 0.9
//
COMPOUND: O=C1c2cccc(O)c2C(=O)c2c(O)cccc21
normalized growth: 0.77

I need normalized growth for every entry listed below, if you could help.
1. CC(C)Cn1c(=O)n(C)c(=O)c2[nH]cnc21
2. Cc1cc(O)c2c(c1)C(=O)c1cccc(O)c1C2=O
3. CC(C)N1C(=O)c2ccccc2NS1(=O)=O
4. O=c1c(O)c(-c2ccccc2)oc2cc(O)ccc12
5. O=C(O)c1cc(O)c2c(c1)C(=O)c1cc(O)cc(O)c1C2=O
6. O=C1NS(=O)(=O)c2ccccc21
7. COc1ccccc1OCC(O)COC(N)=O (stereo unspecified)

stdout:
1. 0.964
2. 0.995
3. 1
4. 0.676
5. 0.939
6. 1
7. 0.99
